observed.property: logP

A = Nc1ccc2ccc3cccc4ccc1c2c34
B = Cc1nc2ccccc2[nH]1
C = CCc1ncc[nH]1
D = CCc1cccc(CC)c1C(=O)c1c(CC)cccc1CC
In: Please list the entries, largest logP first. Sort and list the labels as requested.
Out: D, A, B, C

a = Cc1ccccc1C(=O)c1ccccc1C
b = CCCCCCCc1ccc(C(=O)O)cc1
c = CCCc1ncc[nH]1
In: Rank items: key logP, increasing. Answer by listing the labels in the order asked for.
Out: c, a, b
(c: 1.3, a: 3.87, b: 5.56)

P = Cc1ccc(C(=O)O)cc1C
Q = Clc1ccc2cc3ccccc3cc2c1
In: Kindly identify which of P and Q has the larger recorded logP value. Identify your pick by its label.
Out: Q

I = Nc1ccc(Br)c2ccccc12
II = Cc1cccc(C)c1C(=O)c1c(C)cccc1C
In: Field: lower logP | Options: I / II Give the label of your selection.
Out: I
